# ASSAY_METHOD_TEXT: coupled detection enzyme interference, dose response, artefact control for MgcRacGAP inhibitor project, biochemical, coupled enzyme counter-screen (AID 624351);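 also: signal is the ADP detection kit reading of free GDP without any GAP enzyme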
# MEASUREMENT_PARAMETERS: ADP Hunter coupled enzyme counter-screen, fluorescence, no MgcRacGAP; series mostly up to 80 µM
In all, about 2,400 compounds went through this assay and about 1,400 (58%) were called active. The set was probably picked from earlier hits. The list shows a part of the results.
MEASURED_QUANTITY: IC50

Sample answers from the record:
In [3]: df
Out[3]:
                                   compound         obs_value
0            CCc1ccc(O)c(N=Cc2cccc(C)c2O)c1  50.5 µM (active)
1                CCN1CCN(CCCCOc2ccccc2F)CC1          inactive
2               CCc1ccc(O)c(N=Cc2ccccc2O)c1  37.4 µM (active)
3  CC(C)=NNc1cc([N+](=O)[O-])cc2c1C(=O)N(C)S2=O (stereo unspecified)          inactive
4  CCCCCC(=O)Nc1cc(S(=O)(=O)O)cc2cc(S(=O)(=O)O)cc(O)c12          inactive
5  Cc1ccc(O)c(N=Cc2cc(Cc3ccccc3)cc([N+](=O)[O-])c2O)c1          inactive
6  CCOc1ccccc1NC(=O)C(NCCN(C)C)c1ccccc1 (stereo unspecified)          inactive
7  Nc1c(/C=C2/C=CC(=O)C(O)=C2)c(=O)nc2sc(CC(=O)N3CCOCC3)nn12  67.8 µM (active)

Given the compound Cc1ccc(Cl)c(OCCCN(C)Cc2ccccc2)c1 , what is its reported IC50?
inactive

Quick check: IC50 of CCOC(=O)/C(C#N)=C\c1c(OCC)n(CC)c2ccccc12 ?
inactive

Give the measured IC50 of Nc1c(/C=C2/C=CC(=O)C(O)=C2)c(=O)nc2sc(CC(=O)N3CCCC3)nn12 .
59.4 µM (active)

* * *

# ASSAY_METHOD_TEXT: coupled detection enzyme interference, dose response, artefact control for MgcRacGAP inhibitor project, biochemical, coupled enzyme counter-screen (AID 624351);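 also: signal is the ADP detection kit reading of free GDP without any GAP enzyme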
# MEASUREMENT_PARAMETERS: ADP Hunter coupled enzyme counter-screen, fluorescence, no MgcRacGAP; series mostly up to 80 µM
The campaign covered roughly 2,400 compounds. About 1,400 (58%) were called active.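 How the source made its calls: active means inhibition of 30% or more at any tested dose; inconclusive means primary hits over the limit that were never retested; inactive means the rest.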 The set was probably picked from earlier hits. The list shows a part of the results.
Allowed answers: 1 for active, -1 for inactive

What did the test return for CCOc1ccc(OCCOCCN2CCCC2)cc1 ?
-1

// outcome(item) with item = CSc1sccc1/C=C(/C#N)C(=O)c1ccco1
-1

Tell me the assay call for Cc1ccccc1N1C(S)=C(C#N)C(=O)NC1c1cccs1 (configuration not stated) please.
-1

Please state the recorded outcome for this molecule: Cc1ccc(C2=NOC(=O)/C2=C\c2ccc(C)o2)cc1
-1

Hey, what did the test say about COc1ccc2oc(=O)c(C(=O)Oc3ccc(NC(C)=O)cc3)cc2c1 ?
-1

What call does the record list for Cn1c(N=Nc2ccc(N3CCOCC3)cc2)[n+](C)c2ccccc21 ?
1

Name the outcome recorded for CCCCn1c(=S)[nH]c2c(=O)n(C)c(=O)n(C)c21 in the assay.
1

Per the records of this test, what outcome belongs to CCOc1cc(/C=N/NC(=O)CN2CCCCC2)ccc1O ?
1

How did this test come out for O=c1c2c(nc3cc(-c4ccccc4)[nH]n13)CCS2 ?
-1

For O=C(C1CCCN(Cc2cccnc2)C1)N1CCCCC1 (configuration not stated) , what call appears in the results of this test?
-1

Tell me the recorded outcome of this test for NSc1nc(N)c2nc(-c3ccccc3)c(-c3ccccc3)nc2n1 .
-1

So what was the verdict on O=C(c1ccc(OCCN2CCCCC2)cc1)c1c(-c2ccc(O)cc2)sc2cc(O)ccc12 in this test?
1

Where these numbers come from: PubChem BioAssay AID624351
